- studySystem: HMG-CoA reductase (Rattus norvegicus)
- Construct: from tissue; host or cells: liver microsomes of Sprague-Dawley rats fed 2% cholestyramine for 2 weeks
- Sequence (P51639 1-887): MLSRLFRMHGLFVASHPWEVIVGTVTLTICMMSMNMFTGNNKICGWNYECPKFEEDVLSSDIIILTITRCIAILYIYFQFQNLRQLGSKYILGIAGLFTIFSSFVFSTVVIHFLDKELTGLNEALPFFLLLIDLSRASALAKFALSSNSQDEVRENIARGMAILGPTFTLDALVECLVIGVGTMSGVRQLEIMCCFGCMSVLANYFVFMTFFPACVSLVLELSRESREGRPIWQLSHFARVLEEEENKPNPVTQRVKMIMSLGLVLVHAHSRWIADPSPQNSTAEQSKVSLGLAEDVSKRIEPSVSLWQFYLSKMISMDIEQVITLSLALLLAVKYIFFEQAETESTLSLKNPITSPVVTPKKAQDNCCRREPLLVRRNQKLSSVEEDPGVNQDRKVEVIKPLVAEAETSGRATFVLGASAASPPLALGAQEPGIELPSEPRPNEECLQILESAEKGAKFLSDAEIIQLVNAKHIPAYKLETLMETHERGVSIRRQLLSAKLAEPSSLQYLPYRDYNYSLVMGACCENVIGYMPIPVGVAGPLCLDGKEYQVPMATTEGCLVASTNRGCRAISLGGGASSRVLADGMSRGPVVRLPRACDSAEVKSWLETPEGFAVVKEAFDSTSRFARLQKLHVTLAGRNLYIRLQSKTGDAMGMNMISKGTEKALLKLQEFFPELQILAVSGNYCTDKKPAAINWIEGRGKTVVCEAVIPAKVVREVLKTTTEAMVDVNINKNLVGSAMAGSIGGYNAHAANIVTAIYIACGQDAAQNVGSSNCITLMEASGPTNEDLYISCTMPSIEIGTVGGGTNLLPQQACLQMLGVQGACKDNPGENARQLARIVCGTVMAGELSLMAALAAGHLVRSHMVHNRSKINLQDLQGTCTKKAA
- testProtocol: HMG-CoA reductase inhibitory effect in rat liver microsome, [3-14C]HMG-CoA, TLC and scintillation counting
- Assay type: biochemical
- details: comparative activity, Mevinolin (sodium salt) as reference drug = 100, sodium salt of the test compound, 37° C., 30 minutes
measuredProperty: HMG-CoA reductase inhibitory activities

Some solved entries appear below for comparison.
INSERT INTO results (compound, studysystem, assayresult) VALUES
  ('CCS(=O)(=O)n1c(C)c(-c2ccc(F)cc2)c(/C=C/[C@@H](O)C[C@@H](O)CC(=O)O)c1C(C)C (relative stereo)', 'HMG-CoA reductase (Rattus norvegicus)', 228),
  ('CC(C)c1c(/C=C/[C@@H](O)C[C@@H](O)CC(=O)O)c(-c2ccc(F)cc2)c(-c2ccc(F)cc2)n1S(C)(=O)=O (relative stereo)', 'HMG-CoA reductase (Rattus norvegicus)', 293),
  ('Cc1c(-c2ccc(F)cc2)c(/C=C/[C@@H](O)C[C@@H](O)CC(=O)O)c(C(C)C)n1S(=O)(=O)Cc1ccccc1 (relative stereo)', 'HMG-CoA reductase (Rattus norvegicus)', 105),
  ('CC(C)c1c(/C=C/[C@@H](O)C[C@@H](O)CC(=O)O)c(-c2ccc(F)cc2)cn1S(C)(=O)=O (relative stereo)', 'HMG-CoA reductase (Rattus norvegicus)', 263);

1 = CC[C@H](C)C(=O)O[C@H]1C[C@@H](C)C=C2C=C[C@H](C)[C@H](CC[C@@H](O)C[C@@H](O)CC(=O)O)[C@H]21 [Mevinolin Na, Mevinolin, reference compound]
2 = Cc1c(-c2ccc(F)cc2)c(/C=C/[C@@H](O)C[C@@H](O)CC(=O)O)c(C(C)C)n1S(C)(=O)=O
Data request: From the items above, decide which of 1 and 2 has the lower HMG-CoA reductase inhibitory activities reading. API: response body contains the label of the selected item.
Data returned: 1
(1: 100, 2: 418)
